Attribution: patent US20230125550A1

# Target system: T1, recombinant human CD123-Fc (human, UniProt P26951 19-305)
# T1 construct: not shown: Fc part of CD123-Fc
# T1 sequence: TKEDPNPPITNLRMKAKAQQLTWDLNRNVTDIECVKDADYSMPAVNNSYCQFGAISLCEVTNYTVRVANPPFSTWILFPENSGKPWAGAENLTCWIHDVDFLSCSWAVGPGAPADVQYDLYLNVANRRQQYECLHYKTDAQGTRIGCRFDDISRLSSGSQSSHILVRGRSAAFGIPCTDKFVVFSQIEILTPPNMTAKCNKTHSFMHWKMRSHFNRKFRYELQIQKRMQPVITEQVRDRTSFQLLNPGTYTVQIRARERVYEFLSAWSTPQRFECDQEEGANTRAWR
# Assay summary: phage ELISA, A450 target/A450 IgG1-Fc
Returns: string. Value is Met if measured ELISA_avg is below 5 ratio, and Not met if it is greater than or equal to it.

Examples from the recorded data:
INSERT INTO results (binder, label_class) VALUES
  ('SEQ ID NO 659 (designed binder) MGSWDEFDTRLDAIFSRLYALGGSEAELAMFEGEIAEFEGSLQHYKGKGNPEVEALDFEAHAIDEELWAYRHN', 'Met'),
  ('SEQ ID NO 641 (designed binder) MGSWWEFYDRLTAIEARLWALGGSEAELADFEEGIADFEYDLQDYKGKGNPEVEALFWEAWAIQSELTAYRHN', 'Met'),
  ('SEQ ID NO 737 (designed binder) MGSWWEFEMRLEAIEDRLFALGGSEAELAAFEKEIAAFESELQAYKGKGNPEVESLRWEAAFIRDILQAYRHN', 'Met'),
  ('SEQ ID NO 656 (designed binder) MGSWEEFEQRLWAIDDRLWALGGSEAELAFFEYEIAEFEMDLQWYKGKGNPEVEALFYEAHAINEELWAYRHN', 'Not met'),
  ('SEQ ID NO 727 (designed binder) MGSWVEFENRLEAIENRLWALGGSEAELAAFEKEIAAFESELQAYKGKGNPEVEWLREDAAQIRMMLQAYRHN', 'Not met'),
  ('SEQ ID NO 728 (designed binder) MGSWYEFEERLEAIEDRLWALGGSEAELAAFEKEIAAFESELQAYKGKGNPEVEWLREQAAFIRTMLQAYRHN', 'Not met'),
  ('SEQ ID NO 649 (designed binder) MGSWWEFTDRLDAIFDRLWALGGSEAELAAFEESIAIFEQDLQYYKGKGNPEVEALEYEANAIQYELEAYRHN', 'Not met'),
  ('SEQ ID NO 693 (designed binder) MGSWVEFEYRLDAITERLLALGGSEAELAAFEKEIAAFESELQAYKGKGNPEVEILREEAAFIRQWLQAYRHN', 'Met'),
  ('SEQ ID NO 670 (designed binder) MGSWYEFDARLDAIEERLYALGGSEAELAAFEFEIAGFEEALQWYKGKGNPEVEALLKEAEAITDELYAYRHN', 'Not met'),
  ('SEQ ID NO 653 (designed binder) MGSWEEFYYRLHAIDNRLWALGGSEAELAYFEWHIADFELELQDYKGKGNPEVEALSEEATAIFEELWAYRHN', 'Met');

Prompt: Problem: For the binder SEQ ID NO 662 (designed binder) MGSWFEFLYRLDAIEDRLWALGGSEAELAEFEQEIAKFESELQSYKGKGNPEVEALEWEAHAIDMELEAYRHN , is ELISA_avg under 5 ratio?
Completion: Not met

Prompt: Report whether reported ELISA_avg is lower than 5 ratio (strictly) for SEQ ID NO 730 (designed binder) MGSWWEFEDRLMAIYDRLYALGGSEAELAAFEKEIAAFESELQAYKGKGNPEVEYLRAEAALIRETLQAYRHN
Completion: Not met

Prompt: Lab log: compare recorded ELISA_avg with 5 ratio; is it strictly lower for SEQ ID NO 724 (designed binder) MGSWYEFENRLGAIGDRLWALGGSEAELAAFEKEIAAFESELQAYKGKGNPEVEWLRDEAAYIRAVLQAYRHN ?
Completion: Met

Prompt: Here's an entry: SEQ ID NO 689 (designed binder) MGSWFEFLDRLDAIEERLWALGGSEAELAAFEKEIAAFESELQAYKGKGNPEVEWLREEAAVIRDSLQAYRHN . Is its ELISA_avg below 5 ratio?
Completion: Not met

Prompt: Strictly below 5 ratio in ELISA_avg? SEQ ID NO 713 (designed binder) MGSWYEFWDRLEAIEDRLWALGGSEAELAAFEKEIAAFESELQAYKGKGNPEVEFLRYSAAEIRYQLQAYRHN
Completion: Met

Prompt: Report whether reported ELISA_avg is lower than 5 ratio (strictly) for SEQ ID NO 726 (designed binder) MGSWYEFEWRLDAIYDRLGALGGSEAELAAFEKEIAAFESELQAYKGKGNPEVEWLREDAAEIRALLQAYRHN
Completion: Not met

Prompt: Is the reported ELISA_avg for SEQ ID NO 731 (designed binder) MGSWFEFEDRLYAIEDRLYALGGSEAELAAFEKEIAAFESELQAYKGKGNPEVEYLRWGAATIRDELQAYRHN strictly below 5 ratio?
Completion: Met

Prompt: Below 5 ratio on ELISA_avg? Entry SEQ ID NO 631 (designed binder) MGSWVEFWDRLDAIEERLWALGGSEAELAEFEFMIAMFEQHLQEYKGKGNPEVEALIPEAGAIDKELTAYRHN
Completion: Not met

Prompt: API: query returns whether the binder falls strictly under 5 ratio in ELISA_avg. Query: SEQ ID NO 720 (designed binder) MGSWYEFWDRLEAIEERLWALGGSEAELAAFEKEIAAFESELQAYKGKGNPEVEYLRLEAADIRRILQAYRHN
Completion: Met
